Assignment: determine reported growth for the given compounds.
Test system: BT-549 breast
Assay: NCI-60 one-dose screen, 48 h (100 = growth as untreated, 0 = no growth, -100 = all killed)
Details: 10 µM unless noted
This is part of a sample that, as a whole, favours compounds with a hit. Of some 83,000 tested, about 20% had one in any assay. The source made the active and inactive calls. How the source made its calls: active means growth percent below 10; inactive means the rest.

May I ask what growth has been recorded for C#CCCCCCCC[C@@H]1OC(=O)[C@H]([C@@H](C)CC)NC(=O)[C@H]([C@@H](C)CC)NC(=O)CC(=O)[C@@H]1C ?
108% (inactive)

May I ask what growth has been recorded for c1ccc2[nH]c(-c3ccc(OCCCCCOc4ccc(-c5nc6ccccc6[nH]5)cc4)cc3)nc2c1 ?
-13.5% (active)

May I ask what growth has been recorded for CCn1cnc(C[C@H](NC(=O)[C@@H](NC(=O)Nc2cc(C(F)(F)F)cc(C(F)(F)F)c2)C(C)(C)C)C(=O)OC)c1 ?
-86.2% [100 µM] (active)

May I ask what growth has been recorded for Cc1ccc(C(=O)NN)cc1 ?
98.8% (inactive)

May I ask what growth has been recorded for C[C@@H](c1ccc2c(c1)[nH]c1ccc(Cl)cc12)c1nc2ccc(Cl)cc2[nH]1 ?
68.2% (inactive)

May I ask what growth has been recorded for O=C1NCCN1/N=C/c1c(Cl)nc2n1CCS2 ?
97.7% (inactive)

May I ask what growth has been recorded for NC(N)=N/N=C/c1cccc(Br)c1 ?
87% (inactive)

May I ask what growth has been recorded for COc1cc2c(cc1OC)C(Cc1cc(OC)c(OC)cc1[N+](=O)[O-])=NCC2 ?
56.6% (inactive)

May I ask what growth has been recorded for O=CN/N=C/c1ccc(Cl)c([N+](=O)[O-])c1 ?
42.6% (inactive)

May I ask what growth has been recorded for N#CCCCCCCCCCCC#N ?
102% (inactive)

May I ask what growth has been recorded for O=C(/C=C1\C(=O)N(Cc2ccccc2)c2ccccc21)c1ccc(OCCN2CCCCC2)cc1 ?
80.4% (inactive)

May I ask what growth has been recorded for O=C(Oc1ccccc1)c1ccccc1Cl ?
96.8% (inactive)

May I ask what growth has been recorded for Cc1sc(NC(=O)c2ccc(C(C)(C)C)cc2)c(C(=O)O)c1C ?
88.8% (inactive)

May I ask what growth has been recorded for CCCCCCCCCCC(C[N+](C)(C)C/C=C/c1ccccc1)C(O)c1ccccc1 (stereo not drawn) ?
-6.83% (active)

May I ask what growth has been recorded for N=C(N)c1ccc(-c2ccc(-c3cc(Cl)cc(Cl)c3)s2)cc1 ?
-45.7% (active)

May I ask what growth has been recorded for COc1ccccc1C(=O)Nc1cccc(-c2cc(=O)c3c(OC)c(OC)c(OC)cc3o2)c1 ?
45.9% (inactive)

May I ask what growth has been recorded for COc1cc2ncnc(-n3ncc4cc(NC(=O)Nc5ccc(Cl)c(Cl)c5)ccc43)c2cc1OC ?
-26.9% (active)

May I ask what growth has been recorded for O=C(CBr)OCc1ccc([N+](=O)[O-])o1 ?
118% (inactive)

May I ask what growth has been recorded for CCCCCCNc1nc(N2CCOCC2)c2[nH]c(NCCCCCC)nc2n1 ?
-81.4% (active)

May I ask what growth has been recorded for CNc1nc2ncn(C)c2c(=O)[nH]1 ?
88.7% (inactive)

May I ask what growth has been recorded for c1cc[c]([Bi]([c]2ccccc2)[c]2ccccc2)cc1 ?
96.8% (inactive)

May I ask what growth has been recorded for O=C(/C=C\c1ccccc1Cl)c1ccccc1 ?
92% (inactive)

May I ask what growth has been recorded for CCCCN(CCCC)CCCNc1c2c(nc3ccc(Cl)cc13)CCCC2 ?
108% (inactive)
